Attribution: paper PMC6199744

fold changes relative to vehicle control: recorded values
- TARGET_DESC: HeLa cell extract proteins (Homo sapiens, UniProt O60884)
- Construct: endogenous in cells; host or cells: HeLa cell extract
- Sequence (O60884 whole entry): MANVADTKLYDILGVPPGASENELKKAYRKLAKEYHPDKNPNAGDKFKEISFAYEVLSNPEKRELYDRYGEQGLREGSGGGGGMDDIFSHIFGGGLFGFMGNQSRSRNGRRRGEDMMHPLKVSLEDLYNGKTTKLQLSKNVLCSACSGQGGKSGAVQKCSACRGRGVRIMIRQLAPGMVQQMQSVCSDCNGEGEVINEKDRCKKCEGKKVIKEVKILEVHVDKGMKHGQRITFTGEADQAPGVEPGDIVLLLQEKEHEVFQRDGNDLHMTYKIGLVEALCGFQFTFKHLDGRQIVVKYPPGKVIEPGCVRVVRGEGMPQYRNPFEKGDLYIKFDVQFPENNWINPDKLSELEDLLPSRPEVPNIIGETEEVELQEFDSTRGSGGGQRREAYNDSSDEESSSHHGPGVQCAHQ
- Assay type: binding
- EXPERIMENTAL_SETUP: protein DNAJA2; HeLa
Answer field: number only, no words.

In the examples that follow, each entry is paired with its recorded fold changes relative to vehicle control.
CCCCCCOc1cccc(Cc2cnc(N)nc2N)c1    1.14
Nc1nc2c(c(=O)[nH]1)N(C=O)C(CNc1ccc(C(=O)N[C@@H](CCC(=O)O)C(=O)O)cc1)CN2 (stereo partly drawn)    0.86
Nc1nc2cccc(-c3ccccc3)c2n1Cc1ccc(Cl)c(Cl)c1    0.95
NCCOCCOCC(=O)Nc1nc2ncc(CNc3ccc(C(=O)NC(CCC(=O)O)C(=O)O)cc3)nc2c(=O)[nH]1 (stereo not drawn)    1.01
CCCCCCOc1ccc(Cc2cnc(N)nc2N)cc1    0.92

Next, consider the following compound.
Short answer for NCCCNc1ccc(C(=O)NC(CCC(=O)O)C(=O)O)cc1 (stereo not drawn) : fold changes relative to vehicle control was 0.91

====

- TARGET_DESC: HeLa cell extract proteins (Homo sapiens, UniProt Q7RTS9)
- Construct: endogenous in cells; host or cells: HeLa cell extract
- Sequence (Q7RTS9 whole entry): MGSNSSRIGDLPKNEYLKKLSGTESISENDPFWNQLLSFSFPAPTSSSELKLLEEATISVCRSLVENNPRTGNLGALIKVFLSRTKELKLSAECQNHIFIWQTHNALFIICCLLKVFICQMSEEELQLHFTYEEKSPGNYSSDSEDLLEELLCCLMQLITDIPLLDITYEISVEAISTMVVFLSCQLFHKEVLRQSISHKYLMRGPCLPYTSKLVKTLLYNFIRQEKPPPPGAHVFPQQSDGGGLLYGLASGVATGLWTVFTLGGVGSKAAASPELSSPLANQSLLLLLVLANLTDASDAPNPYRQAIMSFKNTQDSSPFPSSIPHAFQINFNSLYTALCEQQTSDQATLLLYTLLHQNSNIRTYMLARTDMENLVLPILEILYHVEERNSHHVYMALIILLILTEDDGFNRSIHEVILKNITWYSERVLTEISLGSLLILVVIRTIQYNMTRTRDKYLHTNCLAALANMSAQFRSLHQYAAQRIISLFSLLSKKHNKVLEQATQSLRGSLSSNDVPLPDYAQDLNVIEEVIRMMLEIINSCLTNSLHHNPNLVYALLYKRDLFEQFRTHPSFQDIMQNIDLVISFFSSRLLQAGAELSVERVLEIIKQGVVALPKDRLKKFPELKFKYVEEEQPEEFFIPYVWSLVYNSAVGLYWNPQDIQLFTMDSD
- Assay type: binding
- EXPERIMENTAL_SETUP: HeLa; protein DYM
Mark true for fold changes relative to vehicle control under 0.9, false if at or over.

NCCCNc1ccc(C(=O)NC(CCC(=O)O)C(=O)O)cc1 (stereo not drawn) [compound 7]    false

**Q:** Find out if reported fold changes relative to vehicle control for Nc1nc2c(c(=O)[nH]1)N(C=O)C(CNc1ccc(C(=O)N[C@@H](CCC(=O)O)C(=O)O)cc1)CN2 (stereo partly drawn) [LEU, leucovorin] is less than 0.9
**A:** true

**Q:** Lab note: fold changes relative to vehicle control threshold 0.9. Does this compound come in strictly under it? NCCOCCOCC(=O)Nc1nc2ncc(CNc3ccc(C(=O)NC(CCC(=O)O)C(=O)O)cc3)nc2c(=O)[nH]1 (stereo not drawn) [compound 6]
**A:** true

**Q:** Lab note: confirm whether the reported fold changes relative to vehicle control for this compound is below 0.9, equality not counting. compound: CCCCCCOc1cccc(Cc2cnc(N)nc2N)c1 [compound 2]
**A:** false

====

- TARGET_DESC: HeLa cell extract proteins (Homo sapiens)
- Construct: endogenous in cells; host or cells: HeLa cell extract
- Type: binding
- EXPERIMENTAL_SETUP: protein TRIM28; HeLa
Decide using fold changes relative to vehicle control alone. Strictly below 1: satisfied. Equal to or above 1: not satisfied.

Observe how each entry below is paired with its result.
Nc1nc2c(c(=O)[nH]1)N(C=O)C(CNc1ccc(C(=O)N[C@@H](CCC(=O)O)C(=O)O)cc1)CN2 (stereo partly drawn) [LEU, leucovorin]    satisfied
NCCCNc1ccc(C(=O)NC(CCC(=O)O)C(=O)O)cc1 (stereo not drawn) [compound 7]    satisfied
CCCCCCOc1cccc(Cc2cnc(N)nc2N)c1 [compound 2]    not satisfied

Then there is this compound:
**Q:** Say whether its fold changes relative to vehicle control is strictly beneath 1. Entry: CCCCCCOc1ccc(Cc2cnc(N)nc2N)cc1 [compound 1]
**A:** not satisfied

====

- TARGET_DESC: HeLa cell extract proteins (Homo sapiens)
- Construct: endogenous in cells; host or cells: HeLa cell extract
- Type: binding
- EXPERIMENTAL_SETUP: protein PSMC3; HeLa
MEASURED_METRIC: fold changes relative to vehicle control
Enter the number alone.

# example entries with known answers
NCCOCCOCC(=O)Nc1nc2ncc(CNc3ccc(C(=O)NC(CCC(=O)O)C(=O)O)cc3)nc2c(=O)[nH]1 (stereo not drawn)    1.17
Nc1nc2cccc(-c3ccccc3)c2n1Cc1ccc(Cl)c(Cl)c1    1.03
Nc1nc2c(c(=O)[nH]1)N(C=O)C(CNc1ccc(C(=O)N[C@@H](CCC(=O)O)C(=O)O)cc1)CN2 (stereo partly drawn)    1.02
CCCCCCOc1cccc(Cc2cnc(N)nc2N)c1    1.46
CCCCCCOc1ccc(Cc2cnc(N)nc2N)cc1    1.24

Form: item NCCCNc1ccc(C(=O)NC(CCC(=O)O)C(=O)O)cc1 (stereo not drawn) ; test system HeLa cell extract proteins (Homo sapiens); fold changes relative to vehicle control: 1.03

====

# percentage of competition from bead binding listing for each entry below
- System: PHOSPHATIDYLINOSITOL-4-PHOSPHATE 5-KINASE, PUTATIV (TB427.10.3890)
- METHOD: Multitargeted bead mixture competition
- Format: binding
- EXPERIMENTAL_SETUP: free ligand 100 μM, T. brucei lysate
Give the value, in units of %, as a plain number.

// worked examples, percentage of competition from bead binding included
Nc1nc(O)c2c(CCc3ccccc3)c[nH]c2n1 [compound 5]    49
CN(Cc1cnc2nc(N)nc(N)c2n1)c1ccc(C(=O)N[C@@H](CCC(=O)O)C(=O)O)cc1 [MTX, methotrexate]    56
Cc1ccc2nc(N)[nH]c(=O)c2c1Sc1ccncc1 [NTX, nolatrexed]    16

Attention now turns to another entry.
Form: compound = Nc1nc2cccc(-c3ccccc3)c2n1Cc1ccc(Cl)c(Cl)c1 [compound 3] ; percentage of competition from bead binding = -23

====

- TARGET_DESC: HeLa cell extract proteins (Homo sapiens)
- Construct: endogenous in cells; host or cells: HeLa cell extract
- Type: binding
- EXPERIMENTAL_SETUP: protein VCL; HeLa
Overview of recorded fold changes relative to vehicle control for various compounds
Just the number, please, no unit attached.

Nc1nc2c(c(=O)[nH]1)N(C=O)C(CNc1ccc(C(=O)N[C@@H](CCC(=O)O)C(=O)O)cc1)CN2 (stereo partly drawn) [LEU, leucovorin]    0.98
Nc1nc2cccc(-c3ccccc3)c2n1Cc1ccc(Cl)c(Cl)c1 [compound 3]    0.99
CCCCCCOc1ccc(Cc2cnc(N)nc2N)cc1 [compound 1]    1.12
CCCCCCOc1cccc(Cc2cnc(N)nc2N)c1 [compound 2]    1.8
NCCOCCOCC(=O)Nc1nc2ncc(CNc3ccc(C(=O)NC(CCC(=O)O)C(=O)O)cc3)nc2c(=O)[nH]1 (stereo not drawn) [compound 6]    1.21

Notebook: NCCCNc1ccc(C(=O)NC(CCC(=O)O)C(=O)O)cc1 (stereo not drawn) [compound 7] , fold changes relative to vehicle control read as 0.96

====

- TARGET_DESC: HeLa cell extract proteins (Homo sapiens, UniProt P31948)
- Construct: endogenous in cells; host or cells: HeLa cell extract
- Sequence (P31948 whole entry): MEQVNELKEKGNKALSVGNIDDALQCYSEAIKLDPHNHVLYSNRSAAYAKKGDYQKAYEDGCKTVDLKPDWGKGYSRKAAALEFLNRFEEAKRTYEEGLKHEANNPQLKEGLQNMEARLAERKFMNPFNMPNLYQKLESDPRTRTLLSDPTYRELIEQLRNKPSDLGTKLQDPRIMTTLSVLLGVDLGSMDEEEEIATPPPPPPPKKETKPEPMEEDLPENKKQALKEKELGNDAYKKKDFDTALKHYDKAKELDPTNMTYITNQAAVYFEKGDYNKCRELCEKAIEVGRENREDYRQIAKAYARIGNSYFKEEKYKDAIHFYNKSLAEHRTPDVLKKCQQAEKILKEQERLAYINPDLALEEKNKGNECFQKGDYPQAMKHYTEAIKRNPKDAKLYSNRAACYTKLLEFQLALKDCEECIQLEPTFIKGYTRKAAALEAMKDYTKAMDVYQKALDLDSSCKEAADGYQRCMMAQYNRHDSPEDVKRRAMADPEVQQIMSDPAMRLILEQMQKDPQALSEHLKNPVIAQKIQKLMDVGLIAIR
- Assay type: binding
- EXPERIMENTAL_SETUP: protein STIP1; HeLa
Label fulfilled when fold changes relative to vehicle control is at or above 1; otherwise label not fulfilled.

Example cases with answers are listed next.
Nc1nc2c(c(=O)[nH]1)N(C=O)C(CNc1ccc(C(=O)N[C@@H](CCC(=O)O)C(=O)O)cc1)CN2 (stereo partly drawn) [LEU, leucovorin]    not fulfilled
Nc1nc2cccc(-c3ccccc3)c2n1Cc1ccc(Cl)c(Cl)c1 [compound 3]    not fulfilled
NCCCNc1ccc(C(=O)NC(CCC(=O)O)C(=O)O)cc1 (stereo not drawn) [compound 7]    not fulfilled
CCCCCCOc1cccc(Cc2cnc(N)nc2N)c1 [compound 2]    fulfilled

**Q:** Identify whether the reported fold changes relative to vehicle control of the following compound is 1 or greater: NCCOCCOCC(=O)Nc1nc2ncc(CNc3ccc(C(=O)NC(CCC(=O)O)C(=O)O)cc3)nc2c(=O)[nH]1 (stereo not drawn) [compound 6]
**A:** fulfilled

====

- TARGET_DESC: HeLa cell extract proteins (Homo sapiens, UniProt O43175)
- Construct: endogenous in cells; host or cells: HeLa cell extract
- Sequence (O43175 1-533): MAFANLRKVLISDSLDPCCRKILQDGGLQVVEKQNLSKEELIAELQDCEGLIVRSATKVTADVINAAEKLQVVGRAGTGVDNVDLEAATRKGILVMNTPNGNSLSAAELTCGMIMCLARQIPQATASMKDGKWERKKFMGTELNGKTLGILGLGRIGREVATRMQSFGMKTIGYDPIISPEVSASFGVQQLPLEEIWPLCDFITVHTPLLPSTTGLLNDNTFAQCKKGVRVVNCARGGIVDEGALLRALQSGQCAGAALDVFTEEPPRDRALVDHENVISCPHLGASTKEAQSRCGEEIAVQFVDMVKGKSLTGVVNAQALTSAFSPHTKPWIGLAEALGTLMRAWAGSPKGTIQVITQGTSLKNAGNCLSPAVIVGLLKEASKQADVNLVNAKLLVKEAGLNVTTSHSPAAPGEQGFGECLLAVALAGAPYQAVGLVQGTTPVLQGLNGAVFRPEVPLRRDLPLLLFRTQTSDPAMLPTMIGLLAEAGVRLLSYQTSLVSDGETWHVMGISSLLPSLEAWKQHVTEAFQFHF
- Assay type: binding
- EXPERIMENTAL_SETUP: protein PHGDH; HeLa
Measured fold changes relative to vehicle control accompanies every entry in the list below.

CCCCCCOc1cccc(Cc2cnc(N)nc2N)c1    1.25
NCCOCCOCC(=O)Nc1nc2ncc(CNc3ccc(C(=O)NC(CCC(=O)O)C(=O)O)cc3)nc2c(=O)[nH]1 (stereo not drawn)    1.06
CCCCCCOc1ccc(Cc2cnc(N)nc2N)cc1    0.99
NCCCNc1ccc(C(=O)NC(CCC(=O)O)C(=O)O)cc1 (stereo not drawn)    1.06
Nc1nc2c(c(=O)[nH]1)N(C=O)C(CNc1ccc(C(=O)N[C@@H](CCC(=O)O)C(=O)O)cc1)CN2 (stereo partly drawn)    0.88

Below: the item to evaluate.
What the record says about Nc1nc2cccc(-c3ccccc3)c2n1Cc1ccc(Cl)c(Cl)c1 : fold changes relative to vehicle control is 1.5
